Biological target: T1, human MSLN-R2-his protein (human, UniProt Q13421 391-486)
T1 construct: it is put last here; also called human MSLN-R2 protein; hMSLN-R2-his; not shown: His tag
T1 sequence (Q13421 other isoform, or with tags, fused parts or gaps): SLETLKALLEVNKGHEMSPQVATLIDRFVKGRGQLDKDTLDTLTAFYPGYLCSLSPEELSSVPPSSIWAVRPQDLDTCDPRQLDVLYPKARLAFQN
Assay: ELISA on coated antigen, antibody 2 nM
Quantity Measured: OD450 (OD)

Binder	Quantity Measured	U	Assay Value
S009-F7.25.19 (antibody, human IgG1, kappa, V domains shown, Human-murine chimeric antibody, human IgG1 heavy and kappa light constant regions) VH: QVQLQQPGTELVKPGASVKLSCKASGYTFTSYWMHWVKQRPGQGLEWIGNIIPSNGGTKYNEKFKSKATLTVDKSSSTAYMQLSSLTSEDSAVYYCSPHYYGGSPGFAYWGQGTLITVSA VL: DIVMTQSQKFMSTSVGDRVSVICKASQNVGTNVAWYQQKPGQSPKALIYSASYRYSGVPDRFTGSGSGTDFTLTISNVQSEDLAEYFCQQYNSYPLTFGGGTKLEIKR	OD450	OD	0.06
S009-F7.48.1 (antibody, human IgG1, kappa, V domains shown, Human-murine chimeric antibody, human IgG1 heavy and kappa light constant regions) VH: QVQLQQPGTELVKPGASVKLSCKASGYTFTSYWMHWVKQRPGQGLEWIGNINPSNGGTNNNENFKSKATLTVDTSSSTAYMQLSSLTSEDSAVYYCVRNGYHGYWYFDVWGTGTTVTVSS VL: DIVMTQSQKFMSTSVGDRVSVTCKASQNVGTNVAWYQQQPGQSPKALIYSASYRYSGVPDRFTGSVSGTDFTLTISNVQSEDLAEYFCQQYNSYPLTFGGGTKLEIKR	OD450	OD	0.05
S009-F7.44.20 (antibody, human IgG1, kappa, V domains shown, Human-murine chimeric antibody, human IgG1 heavy and kappa light constant regions) VH: EVQLQQSGPELVKPGASVKIPCKASGYTFTDYNMDWVKQSHGKSLEWIGDINPSTGGTIYNQKFNGKATLTEDKSASTVYMEFRSLTSDDTAVYYCARRRIGTGYFDVWGTGTTVTVSS VL: QIVLTQSPALMSASPGEKVTLTCSASSSVISSYLSWYQQKPGSSPKLLIYRTSNLASGVPARFSGSGSGTSYSLTISSMEAEDAASYFCHQWSSFPYTFGGGTKLEIKR	OD450	OD	0.05
S009-F7.65.13 (antibody, human IgG1, kappa, V domains shown, Human-murine chimeric antibody, human IgG1 heavy and kappa light constant regions) VH: EVQLQQSGPELVKPGTSVKILCKASGDTFTAYNMDWVKQRHGQSLEWIGDINPNTDSTIYNQKFEGKAILTVDKSSSTAYMELRSLTSEDTAVYYCARRKLGRGYFDYWGQGTTLTVSS VL: QIVLTQSPAIMSASPGEKVTMTCSVNLSVRYIYWYQQKPGSSPRLLIHDTSNLASGVPVRFSGSGSGTSYSLTISRMEAEDAATYYCQQWSSFPYTFGGGTKLEIKR	OD450	OD	0.05
S009-F7.26.15 (antibody, human IgG1, kappa, V domains shown, Human-murine chimeric antibody, human IgG1 heavy and kappa light constant regions) VH: DVQLQESGPGLVKPSQTVFLTCTVTGISITTGNYRWSWIRQFPGNKLEWIGYIYYTGFITYNPSLTSRTTITRDTPKNQFFLEMKSLTAEDTATYYCARDDYDYDVFAYWGQGTLVTVSA VL: DIQMTQSPASLSASVGETVTITCRASGNIHNYLAWYHQKQGKSPQFLVYKAKTLADGVPSRFSGSGSGTQYSLKINRLQPEDFGSYYCQHFLSIPLTFGAGTKLELKR	OD450	OD	0.05
Tab106 (YP218, hIgG1) (antibody, V domains shown, Control antibody; YP218 VH and VL recombined into human IgG1 CH and CL expression vectors; also called YP218 human IgG1 antibody) VH: QQQLEESGGGLVKPEGSLTLTCKASGFDLGFYFYACWVRQAPGKGLEWIACIYTAGSGSTYYASWAKGRFTISKASSTTVTLQMTSLAAADTATYFCARSTANTRSTYYLNLWGPGTLVTVSS VL: DVVMTQTPASVSEPVGGTVTIKCQASQRISSYLSWYQQKPGQRPKLLIFGASTLASGVPSRFKGSGSGTEYTLTISDLECADAATYYCQSYAYFDSNNWHAFGGGTEVVVRT	OD450	OD	1.42
S009-F7.12.13 (antibody, human IgG1, kappa, V domains shown, Human-murine chimeric antibody, human IgG1 heavy and kappa light constant regions) VH: EVQLQQSGPELVKPGASVKIPCKASGYTFTDYNMDWVKQSHGKGLEWIGDINPNTDDTIYNQKFNGKATLTVDKSSSTAYMELRSLTSEDTAVYYCSRRLIGTGYFDVWGTGTTVTVSS VL: QIVLTQSPAIMSASPGEKVTLTCSASSSVISTYLCWYRQKPGSSPELWIYSTSNLASGVPARFSGSGSGTSYSLTISSMEAEDAASYFCHQWSNYPYTFGGGTKLGMKR	OD450	OD	0.05
S009-F7.67.12 (antibody, human IgG1, kappa, V domains shown, Human-murine chimeric antibody, human IgG1 heavy and kappa light constant regions) VH: QVQLQQPGTELVKPGASVRLSCRASGYSFSSYWMHWVKQRPGQGLEWLGNINPTTGDINYNEKFRNRATLAVDKSSTTAYLQLTSLTSEDSAVYFCVRHDGFLWGQGTTLTVSS VL: DIQMTQSPASLSASVGETVTITCRASENIYSYLAWYQQKQGKSPQLLVYYAKTLAEGVSSRFSGSGSGTQFSLKINSLQPEDFGTYYCQHQFGTPRTFGGGTKLEIRR	OD450	OD	0.06
